Values from ChEMBL document CHEMBL5096202

# Test method notes: Metabolic stability in human liver microsomes assessed as intrinsic clearance
# Assay type: ADME, Microsome
# Condition details: read-out: CLH
Please go through the items and note down their CLint scaled.
Could you kindly put the unit after your number?

Chemical string	CLint scaled
CCCCCCC(C)(C)c1cc(OC)c([C@H]2C=C(CO)[C@H]3C[C@@H]2C3(C)C)c(OC)c1	85.4 mL/min/kg

// each listed compound needs a value for CLint scaled
1. CCCCCC[Si](C)(C)c1cc(OC)c([C@H]2C=C(CO)[C@H]3C[C@@H]2C3(C)C)c(OC)c1
2. C=C(C)[C@@H]1CCC(C)=C[C@H]1c1c(O)cc(CCCCC)cc1O
3. C=C(C)[C@@H]1CCC(C)=C[C@H]1c1c(O)cc([Si](C)(C)CCCCCC)cc1O

Response given:
["35 mL/min/kg", "390 mL/min/kg", "55.2 mL/min/kg"]
